- target.or.system: recombinant full-length USP7 (Homo sapiens)
- Construct: A 25 μl reaction volume containing recombinant full-length USP7 (62 pM)
- assay.text: USP7-mediated ubiquitin-rhodamine cleavage assay
- Assay type: biochemical
- condition: recombinant full-length USP7 62 pM; ubiquitin-rhodamine 100 nM; 30-minute incubation with compound, 1 hour reaction at room temperature; read-out: Potency: USP7 IC50
Form field: IC50 (one value per entry).

[[record]]
molecule = "CCN1CC[C@@H](Oc2c(C)cc(Cl)cc2-c2ccnc3cc(CN4C(=O)C5CC5C4=O)sc23)[C@@H](C)C1 (stereo partly shown)"
target_or_system = "recombinant full-length USP7 (Homo sapiens)"
parameter_measured = "IC50"
result = "< 1000 nM"

[[record]]
molecule = "Cc1cc(Cl)cc(-c2ccnc3cc(CN4C(=O)COC4=O)sc23)c1O[C@H]1CCCNC1"
target_or_system = "recombinant full-length USP7 (Homo sapiens)"
parameter_measured = "IC50"
result = "< 1000 nM"


Which measured IC50 value corresponds to Cc1cc(Cl)cc(-c2ncnc3cc(CN4C(=O)C5C(C4=O)C5(C)C)sc23)c1O[C@@H]1CNCC[C@@H]1C (stereo partly shown) ?
< 1000 nM

Which measured IC50 value corresponds to Cc1cc(Cl)cc(-c2ncnc3cc(CN4C(=O)C5CCCN5C4=O)sc23)c1O[C@@H]1CNC[C@@H]1F (stereo partly shown) ?
1000 to 10000 nM

Which measured IC50 value corresponds to Cc1cc(Cl)cc(-c2ccnc3ccsc23)c1OC1CC2CNC1C2 (stereo not shown) ?
10000 to 30000 nM

====

Form field: IC50 (one value per entry).
- target.or.system: recombinant full-length USP7 (Homo sapiens, UniProt Q93009)
- Construct: A 25 μl reaction volume containing recombinant full-length USP7 (62 pM)
- Sequence (Q93009 whole entry): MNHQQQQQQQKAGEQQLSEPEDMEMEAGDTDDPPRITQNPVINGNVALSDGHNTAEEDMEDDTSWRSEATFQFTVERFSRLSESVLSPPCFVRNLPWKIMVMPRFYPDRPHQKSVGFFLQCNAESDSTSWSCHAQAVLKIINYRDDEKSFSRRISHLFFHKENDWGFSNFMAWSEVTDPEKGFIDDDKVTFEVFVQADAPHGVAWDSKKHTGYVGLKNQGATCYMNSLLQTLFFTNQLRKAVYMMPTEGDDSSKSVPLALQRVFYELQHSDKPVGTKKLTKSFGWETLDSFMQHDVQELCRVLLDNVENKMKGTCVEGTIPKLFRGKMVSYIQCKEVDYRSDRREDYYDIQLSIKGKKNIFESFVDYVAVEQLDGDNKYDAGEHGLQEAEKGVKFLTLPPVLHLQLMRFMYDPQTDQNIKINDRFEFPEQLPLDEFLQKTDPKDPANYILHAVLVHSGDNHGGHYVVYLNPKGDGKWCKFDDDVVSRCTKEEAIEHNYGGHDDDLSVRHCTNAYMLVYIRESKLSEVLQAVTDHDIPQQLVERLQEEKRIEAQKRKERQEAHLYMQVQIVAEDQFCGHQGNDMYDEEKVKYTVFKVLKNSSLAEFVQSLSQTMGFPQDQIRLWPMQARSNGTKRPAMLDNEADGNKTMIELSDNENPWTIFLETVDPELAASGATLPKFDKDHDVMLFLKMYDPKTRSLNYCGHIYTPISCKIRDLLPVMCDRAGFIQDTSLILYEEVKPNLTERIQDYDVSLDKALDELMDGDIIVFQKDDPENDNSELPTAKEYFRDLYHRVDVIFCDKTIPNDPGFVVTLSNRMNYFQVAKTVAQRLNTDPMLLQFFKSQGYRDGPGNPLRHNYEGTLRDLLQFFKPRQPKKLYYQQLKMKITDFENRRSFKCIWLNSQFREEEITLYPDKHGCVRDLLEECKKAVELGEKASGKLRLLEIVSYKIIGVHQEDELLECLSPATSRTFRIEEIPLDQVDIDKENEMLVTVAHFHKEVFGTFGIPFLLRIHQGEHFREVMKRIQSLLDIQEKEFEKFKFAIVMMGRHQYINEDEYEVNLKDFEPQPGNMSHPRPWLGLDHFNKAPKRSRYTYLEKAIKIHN
- assay.text: USP7-mediated ubiquitin-rhodamine cleavage assay
- Type: biochemical
- condition: recombinant full-length USP7 62 pM; ubiquitin-rhodamine 100 nM; 30-minute incubation with compound, 1 hour reaction at room temperature; read-out: Potency: USP7 IC50
- Procedure: In the case of the USP7 deubiquitylating enzyme, the IC50 of an USP7 inhibiting compound is the concentration of the compound that inhibits 50% of the activity observed in a USP7-mediated ubiquitin-rhodamine cleavage assay. For the USP7 inhibitors disclosed herein, their potency was measured using the following test method. […]

[[record]]
compound = "Cc1cc(Cl)cc(-c2ccnc3cc(CN4C(=O)C5CC5C4=O)sc23)c1O[C@H]1CC[C@H](C)NC1 (stereo partly shown) [Example 305]"
target_or_system = "recombinant full-length USP7 (Homo sapiens, UniProt Q93009)"
result = "< 1 µM"

[[record]]
compound = "Cc1cc(Cl)cc(-c2ccnc3cc(Cn4c(=O)ccn(CC(F)(F)F)c4=O)sc23)c1O[C@@H]1CCN(C)C[C@@H]1C [Example 273]"
target_or_system = "recombinant full-length USP7 (Homo sapiens, UniProt Q93009)"
result = "< 1 µM"

[[record]]
compound = "Cc1cc(Cl)cc(-c2ccnc3cc(CN4C(=O)C5CCC5C4=O)sc23)c1O[C@H]1CCCNC1 (stereo partly shown) [Example 297]"
target_or_system = "recombinant full-length USP7 (Homo sapiens, UniProt Q93009)"
result = "< 1 µM"


Now for the compound whose IC50 we want.
Please provide the recorded IC50 for Cc1cc(Cl)cc(-c2ccnc3cc(CN4C(=O)C5CC5C4=O)sc23)c1O[C@@H]1CN(C)C[C@@H]1F (stereo partly shown) [Example 314] , tested on recombinant full-length USP7 (Homo sapiens, UniProt Q93009).
< 1 µM
